Tested on: DYRK2;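 note: KINOMEscan kinase panel screen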
CONDITION SUMMARY: concentration: 1 μM, replicates: in singlicate; n = 1
So I've got a bunch of molecules here, and I need their %Inh values.
One number for each entry, in %.

# annotated cases, reported %Inh shown
MOLECULE: COc1ccc(Nc2nccc(-c3cccc(NC(=O)c4cc5cc(F)ccc5[nH]4)c3)n2)cc1
ASSAY METRIC: %Inh
NUMBER: 12
--
MOLECULE: Cl.Oc1ccc(-c2nc(-c3ccccc3)[nH]c2-c2ccncc2)cc1
ASSAY METRIC: %Inh
NUMBER: 0
--
MOLECULE: COc1ccccc1CNC(=O)c1cc(C(=O)c2ccccc2C)c[nH]1
ASSAY METRIC: %Inh
NUMBER: 0
--
MOLECULE: O=C(Nc1ccc2c(c1)OCO2)NC1CCN(c2ccnc(Nc3ccc(F)cc3)n2)C1 (centres unmarked)
ASSAY METRIC: %Inh
NUMBER: 3
--
MOLECULE: Cc1cccc(-c2nc(C)cc(Nc3ccncc3)n2)n1
ASSAY METRIC: %Inh
NUMBER: 14
--
MOLECULE: COc1ccccc1-c1ccc2c(NC(=O)C3CC3)n[nH]c2n1
ASSAY METRIC: %Inh
NUMBER: 2
--
MOLECULE: Cc1cccc(-c2nc(Nc3cccc(C(N)=O)c3)c3ccccc3n2)n1
ASSAY METRIC: %Inh
NUMBER: 34
--
MOLECULE: Cc1cc(NCC(c2ccccc2)c2ccccc2)nc(NCc2ccc(C(F)(F)F)cc2)n1
ASSAY METRIC: %Inh
NUMBER: 3
--
MOLECULE: CS(=O)(=O)c1ccc(-c2c(-c3ncn[nH]3)sc(N3CCOCC3)c2C#N)cc1
ASSAY METRIC: %Inh
NUMBER: 14
--
MOLECULE: O=c1cc(N2CCOCC2)nc2n(Cc3cccc(Cl)c3Cl)ccn12
ASSAY METRIC: %Inh
NUMBER: 21

Hello, I would appreciate it if you could give %Inh for each entry below.
1. NC(=O)c1nnc2ccccc2c1N
2. Cc1cccc(-c2cc(Nc3ccncc3)c3ccccc3n2)n1
3. Fc1cc(Cl)ccc1Nc1ccnc2cc(I)ccc12
4. CN(C)CCN(C)C(=O)c1cc(-c2ccncc2)c(-c2ccc(Cl)c(O)c2)o1.Cl.Cl
5. Cl.O=C(Nc1cccc(-c2nn3ncccc3c2-c2ccnc(Nc3cccnc3)n2)c1)c1c(F)cccc1F
6. CC1=C(C(=O)Nc2cc3cn[nH]c3cc2F)C(c2ccc(C(F)(F)F)cc2)CC(=O)N1 (centres unmarked)
7. Cn1ccc2ncnc(Oc3ccc(Nc4nc5ccccc5[nH]4)cc3)c21
8. COc1ccc2nc(-c3cccc(C)n3)nc(Nc3ccncc3)c2c1

Marked response:
[39, 18, 4, 0, 6, 0, 0, 0]

Hello, I would appreciate it if you could give %Inh for each entry below.
1. COc1cc(Nc2nccc(N3CCC(NC(=O)Nc4cc(C)ccc4C)C3)n2)cc(OC)c1OC (centres unmarked)
2. CCn1c(-c2cccnc2O)nc2cnccc21

Marked response:
19
0
